Entry source: the Human Domainome abundance scans (Beltran et al. 2025)

Recorded abundance fitness, one value per entry.
B1: Probable E3 ubiquitin-protein ligase MID2, residues 191 to 235; numbered along this chain, Q9UJV3 (parent)
chain: RGITCLDHENEKVNMYCVSDDQLICALCKLVGRHRDHQVASLNDR

Variants of: B1
Experiment: abundance fitness (aPCA) (normalised: wild type 0, dead -1); higher = more abundant; growth selection in yeast, the domain comes from the species named
Run parameters: Homo sapiens
Observable: abundance fitness

RGITCLDHENEKVNMYCVSDDQLICALCKLVGRHRVHQVASLNDR [D36V]    -0.3
RGITWLDHENEKVNMYCVSDDQLICALCKLVGRHRDHQVASLNDR [C5W]    -0.706
RGITCTDHENEKVNMYCVSDDQLICALCKLVGRHRDHQVASLNDR [L6T]    0.14
RGITCLDHENEKVNMYCVSDDQLICALMKLVGRHRDHQVASLNDR [C28M]    -0.942
RGITCLDHENEKVNMYCVSDDQLICALCKLVGRHRDHQMASLNDR [V39M]    -0.129
RGITCLDHENEKVNMRCVSDDQLICALCKLVGRHRDHQVASLNDR [Y16R]    0.183
RGITCLDHENEKVNMYCVSDDQLICALCKLVGRNRDHQVASLNDR [H34N]    -0.474
RGITCLDHENEKVNMYCVSDDQLICALCKLVGRHRRHQVASLNDR [D36R]    -0.255
RGITCLDHENEKVNMYCVSDDQLICAVCKLVGRHRDHQVASLNDR [L27V]    0.039
RGITCDDHENEKVNMYCVSDDQLICALCKLVGRHRDHQVASLNDR [L6D]    0.124
RGITCLDHENEKVNMYCVSDDQLICALCKAVGRHRDHQVASLNDR [L30A]    0.159
RGITCLDHENEKVNMYCASDDQLICALCKLVGRHRDHQVASLNDR [V18A]    0.054
RGITCLDHENEKVNMYCVSDDQLITALCKLVGRHRDHQVASLNDR [C25T]    -0.526
RGITCLDHEAEKVNMYCVSDDQLICALCKLVGRHRDHQVASLNDR [N10A]    -0.348
RGITCLDHENEKVNMYCVSDDQLICALCVLVGRHRDHQVASLNDR [K29V]    -0.149
RGITCLDHENEKVNMYCVSDDQLICALCKLVGRHRDHQVYSLNDR [A40Y]    -0.2
RGITCLDHENEKVNMYCGSDDQLICALCKLVGRHRDHQVASLNDR [V18G]    0.011
RGITCLDHENEKVNMYCVSDHQLICALCKLVGRHRDHQVASLNDR [D21H]    -0.283
RGITCLDHENEKVNMYCVSDDQLICALCKLVGRHRDKQVASLNDR [H37K]    0.271
RGITCLDHECEKVNMYCVSDDQLICALCKLVGRHRDHQVASLNDR [N10C]    -0.175
RGITCLDHENEKVNMYCVSDDQLICALCKLVGRHRDHMVASLNDR [Q38M]    -0.25
RGIICLDHENEKVNMYCVSDDQLICALCKLVGRHRDHQVASLNDR [T4I]    0.032
RGITCLDHENEKVNQYCVSDDQLICALCKLVGRHRDHQVASLNDR [M15Q]    0.166
RGITCLDKENEKVNMYCVSDDQLICALCKLVGRHRDHQVASLNDR [H8K]    -0.533
RGITCVDHENEKVNMYCVSDDQLICALCKLVGRHRDHQVASLNDR [L6V]    0.021
RGITCLDHENEPVNMYCVSDDQLICALCKLVGRHRDHQVASLNDR [K12P]    0.124
RGITCLDHENEKVNMYCVSDDQLICALCKLVGRHRDHQVASWNDR [L42W]    -0.198
RGITCLDHENEKVNMYCVSDDQLSCALCKLVGRHRDHQVASLNDR [I24S]    -0.179
RGITCLDHENEKVNMYCVSDDQLICAYCKLVGRHRDHQVASLNDR [L27Y]    -0.263
RGITCLDHENEKVNMYCVSDDQVICALCKLVGRHRDHQVASLNDR [L23V]    0.006
RGDTCLDHENEKVNMYCVSDDQLICALCKLVGRHRDHQVASLNDR [I3D]    0.123
RGITCLDHENEKVNMYCVSDDQLICALCKLVGRHRDHQGASLNDR [V39G]    -0.191
RGITCLDHENEKQNMYCVSDDQLICALCKLVGRHRDHQVASLNDR [V13Q]    -0.047
RGITCLDHENEKVNMHCVSDDQLICALCKLVGRHRDHQVASLNDR [Y16H]    -0.114
RGITCLDHENEKVNMYCVSDDQLIFALCKLVGRHRDHQVASLNDR [C25F]    -0.468
RGITCLDHENEKVNMYCVSDDQLICASCKLVGRHRDHQVASLNDR [L27S]    0.052
RGITCLDHENEKVNMYCVSDDQLICALCKLVGRHRDHWVASLNDR [Q38W]    -0.369
RGITCLDHENEKVNMYCVSDDQLICALCKLVGRHADHQVASLNDR [R35A]    0.064
RGITCLDHENEKVNMYCVSDDQLICALCKLPGRHRDHQVASLNDR [V31P]    0.014
RGITCLDHENEKVNMYCVSDDQLICALYKLVGRHRDHQVASLNDR [C28Y]    -1.14
RGITCLDHENEKVNMYCSSDDQLICALCKLVGRHRDHQVASLNDR [V18S]    0.027
RGITCLDHENEKVNMYCVSDDQLILALCKLVGRHRDHQVASLNDR [C25L]    -1.34
RGITCLDHENEKVNMYCVSDDQLICALCKLVGRHRDHQVASLNQR [D44Q]    -0.234
RGITCLDHENEKVNMYCVSDDQLICHLCKLVGRHRDHQVASLNDR [A26H]    -0.169
RGITCLDHENEKVNMYCVSDDQLICALCKLVGRHRDHQVASLCDR [N43C]    -0.097
RGCTCLDHENEKVNMYCVSDDQLICALCKLVGRHRDHQVASLNDR [I3C]    -0.101
